Experiment: total protein half-life in vivo (active degradation + dilution); higher = more stable protein
Conditions: wild type E. coli NCM3722; growth: P-lim chemostat; doubling time 12 h
Cut-off 10 h on total protein half-life in vivo, inclusive. At or above means T; below means F.

{"BIOPOLYMER SEQUENCE": "MIHSSVKRWGNSPAVRIPATLMQALNLNIDDEVKIDLVDGKLIIEPVRKEPVFTLAELVNDITPENLHENIDWGEPKDKEVW [P0AE72]", "CAT": "F"}
{"BIOPOLYMER SEQUENCE": "MNLHEYQAKQLFARYGLPAPVGYACTTPREAEEAASKIGAGPWVVKCQVHAGGRGKAGGVKVVNSKEDIRAFAENWLGKRLVTYQTDANGQPVNQILVEAATDIAKELYLGAVVDRSSRRVVFMASTEGGVEIEKVAEETPHLIHKVALDPLTGPMPYQGRELAFKLGLEGKLVQQFTKIFMGLATIFLERDLALIEINPLVITKQGDLICLDGKLGADGNALFRQPDLREMRDQSQEDPREAQAAQWELNYVALDGNIGCMVNGAGLAMGTMDIVKLHGGEPANFLDVGGGATKERVTEAFKIILSDDKVKAVLVNIFGGIVRCDLIADGIIGAVAEVGVNVPVVVRLEGNNAELGAKKLADSGLNIIAAKGLTDAAQQVVAAVEGK [P0A836]", "CAT": "T"}
{"BIOPOLYMER SEQUENCE": "MSQTVHFQGNPVTVANSIPQAGSKAQTFTLVAKDLSDVTLGQFAGKRKVLNIFPSIDTGVCAASVRKFNQLATEIDNTVVLCISADLPFAQSRFCGAEGLNNVITLSTFRNAEFLQAYGVAIADGPLKGLAARAVVVIDENDNVIFSQLVDEITTEPDYEAALAVLKA [P0A862]", "CAT": "T"}
{"BIOPOLYMER SEQUENCE": "MSDNIRVGLIGYGYASKTFHAPLIAGTPGQELAVISSSDETKVKADWPTVTVVSEPKHLFNDPNIDLIVIPTPNDTHFPLAKAALEAGKHVVVDKPFTVTLSQARELDALAKSLGRVLSVFHNRRWDSDFLTLKGLLAEGVLGEVAYFESHFDRFRPQVRDRWREQGGPGSGIWYDLAPHLLDQAITLFGLPVSMTVDLAQLRPGAQSTDYFHAILSYPQRRVILHGTMLAAAESARYIVHGSRGSYVKYGLDPQEERLKNGERLPQEDWGYDMRDGVLTRVEGEERVEETLLTVPGNYPAYYAAIRDALNGDGENPVPASQAIQVMELIELGIESAKHRATLCLA", "CAT": "T"}
{"BIOPOLYMER SEQUENCE": "MSAQKPGLHPRNRHHSRYDLATLCQVNPELRQFLTLTPAGEQSVDFANPLAVKALNKALLAHFYAVANWDIPDGFLCPPVPGRADYIHHLADLLAEASGTIPANASILDIGVGANCIYPLIGVHEYGWRFTGSETSSQALSSAQAIISSNPGLNRAIRLRRQKESGAIFNGIIHKNEQYDATLCNPPFHDSAAAARAGSERKRRNLGLNKDDALNFGGQQQELWCEGGEVTFIKKMIEESKGFAKQVMWFTSLVSRGENLPPLYRALTDVGAVKVVKKEMAQGQKQSRFIAWTFMNDEQRRRFVNRQR", "CAT": "T"}
{"BIOPOLYMER SEQUENCE": "MPPRALLLVDLQNDFCAGGALAVPEGDSTVDVANRLIDWCQSRGEAVIASQDWHPANHGSFASQHGVEPYTPGQLDGLPQTFWPDHCVQNSEGAQLHPLLHQKAIAAVFHKGENPLVDSYSAFFDNGRRQKTSLDDWLRDHEIDELIVMGLATDYCVKFTVLDALQLGYKVNVITDGCRGVNIQPQDSAHAFMEMSAAGATLYTLADWEETQG", "CAT": "T"}
